molecular target: Guanyl-specific ribonuclease T1 (Aspergillus oryzae (strain ATCC 42149 / RIB 40)); test: RNase T1 inhibitors, counter-screen for TPT1 inhibitor project, biochemical, fluorescence polarization (AID 2153); details: RNase T1 cleavage, 1536-well, at 5 µM;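 note: inhibitors block cleavage so intact labeled substrate keeps polarization high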
In all, about 2,400 compounds went through this assay and about 2,000 (83%) were called active.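 Rule for the calls: active = inhibition above the solvent-only control well mean plus 3 SD, limit set per screening run (cut at about 23% in these data); inactive = the rest.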 So high a share suggests a set chosen from earlier hits. A selection follows.
Labels: active, inactive

- CCN1/C(=C\c2ccc3ccccc3[n+]2CC)Sc2cc(C)ccc21: active
- CC1=CC2=NC(=O)/C(=C/c3coc4ccccc4c3=O)C(=N)N2O1: active
- Cc1ccc2cc(/C=N/Nc3ccc(C(=O)O)cc3)c(Cl)nc2c1: active
- CCN1/C(=C/c2ccc3ccc(C)cc3[n+]2CC)Sc2ccccc21: active
- COc1ccc(Cc2nc(-c3ccccn3)no2)cc1OC: inactive
- Cc1ccc2[nH]c(=O)c(CN3CCCCC3)c(-c3ccccc3)c2c1: inactive
